# Tested on: NCI-H23 lung
# ASSAY SUMMARY: NCI-60 one-dose screen, 48 h (100 = growth as untreated, 0 = no growth, -100 = all killed)
# CONDITIONS USED: 10 µM unless noted
The panel holds about 83,000 compounds, 20% with a hit somewhere; the sample as a whole holds those more often. The source made the active and inactive calls. The calls were made as follows: active = growth percent below 10; inactive = the rest.
Each item that follows carries a reported growth.

{"COMPOUND STRUCTURE": "S=C(Nc1ccccc1)c1ccccn1", "growth": "87.5% (inactive)"}
{"COMPOUND STRUCTURE": "CC(=O)c1ccc(NC(=O)CSc2nnc(-c3cc(-c4ccc(C)cc4)nc4ccccc34)o2)cc1", "growth": "27.6% (inactive)"}
{"COMPOUND STRUCTURE": "CN(C)[C@@H]1C(=O)C(C(N)=O)=C(O)[C@@]2(O)C(=O)C3=C(O)c4c(O)cc(CN5CCc6ccccc6C5)c(Cl)c4C[C@H]3C[C@@H]12", "growth": "-73.8% (active)"}
{"COMPOUND STRUCTURE": "CCCCCOC(=O)c1ccccc1O", "growth": "112% (inactive)"}
{"COMPOUND STRUCTURE": "O=C(NC[C@H](O)CN1CCc2ccccc2C1)c1cc(NC2COC2)ncn1", "growth": "99.7% (inactive)"}
